# System: gene editing with dCas9
# Test method notes: Screen of 322 new SSAP proteins, gene editing activity with dCas9 (Table 5)
# Type: cell-based
# Recorded conditions: normalized
Here, each record is paired with measured dCas9 with SSAP activity (normalized) data.

| Molecule | dCas9 with SSAP activity (normalized) |
| --- | --- |
| SSAP_86: SEQ ID NO: 255 (protein) ADLTKTANGADLAAAIGGKQAETGRATAFDLVKSMEAEFAKALPRHVPVEQFMRTAVTELRQNADLQRSTSESLLGAFLTAARLGLEVGGPMGEFYLTPRFAKLPGQDQKAWQVVPIVGYRGLVKLARNAGVGAVKAWVVYEGDHFVEGANSERGPFFDFHPVPGDPAGRKEVGVLAVARLSGGDVQHTYLTIEQVEKRKARGSAGDKGPWATDRAAMIRKSGIRALAGELPQSTLLALARVVDEEVQTYVPGSLVDVGTGELEA | −0.714 |
| SSAP_295: SEQ ID NO: 464; Pseudoalteromonas (multispecies) (protein, listed as Pseudoalteromonas sp.) SLSLQEYQNLLYGKLTACKGQFDACLSENGYKLDFNTELNYVYQIVMSGLNVEYSFPYTPVESVITSFLKAAKIGLSLCPTEQLCFLKTEYSESSGQYVTQLGLGYKGILKLAYRSGKVKQINANVFYEKDNFQYNGVNSKVTHTTTVLSKAMRGQLAGGYCQTELIDGSFKTTVMPPEEILAIEEQGKAMGNEAWLSVHVDQMREKTLIKRHWKTLCPCIYRDSVMNDPMLFDDQDCQHSSNQQAYEEQFESAYSREAY | −0.267 |
| SSAP_185: SEQ ID NO: 354; Pirellula sp. SH-Sr6A (protein, listed as Pirellula sp.) SEATKEAKPETAIAKKPNGIKDWLKSDALKTQIASVAPKHMAPERVMRIALNAVSRTPKLADCTPESFMRCLLDLSSWGLEPDGRHAHLIPYGTECTLVLDYKGLVTLAYRSGWVKKIHADVVFEGDIFVYSLGTVCQHIPWEFRDDANKPEHKGHFRAAYCVVTMADGIEKHEVMTASEIDAIKAKSRSGNSGPWKDHYTEMAKKTVYRRASKWLPLSPEQADAMERDDDRIIDAVSVAVTQRLSKAAMPLIGANETGDTE | −2.012 |
| SSAP_187: SEQ ID NO: 356; Staphylococcus warneri (protein, listed as Staphylococcus warneri) ATQNDFKNQITDKKENKPQQSTNPRQVASDLLERMKPEIAKALPAHMSQDRMTRIALSAVNSNPKLSEVILNNPTSFLGALMQSAQLGLEPNTNLGHAYLIPYGNIVQLQLGYLGLLELAYRSGKYQKIMAMPVYKDDFFEYQYGTDEKLNHIPAQQQTGDAVGYYAFYKLTNGGTHFVYWSRQKMNMHQQQYSKGGNVWRNNFDAMALKTVIKDVLKYAPKSIEMGEAVTSDNNNFDFKDGGDIIDVTDYETEEN | −0.164 |
